# test_method_notes: RAM signaling pathway blockade in yeast – S. cerevisiae, Pdr1DBD-CYC8 efflux-inhibited sensitized strain, primary screen (AID 1298);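 further: 0% = DMSO untreated cells without growth and 100% = 10 µM 1-NA-PP1 full growth; higher means more yeast growth rescued from 5-FOA killing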
# run_conditions: S. cerevisiae cbk1-as DSE1-URA3 strain, 5-FOA growth OD615, 2 d; at 50 µM; active compounds read high
Activity calls are given as the source filed them.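 How the source made its calls: active means RAM network inhibition above 8.4% in each of two replicates, 3 SD over the compound average; inconclusive means above 8.4% inhibition in only one replicate; inactive means 8.4% inhibition or less in each replicate.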
readout: RAM network inhibition

CC(CNCc1ccc2c(c1)OCO2)NCc1ccc2c(c1)OCO2 (stereo unspecified)    1.32% (inactive)
CC(=O)NCc1nc2ccccc2n1Cc1ccccc1C    2.57% (inactive)
O=S(=O)(NCCSc1nnc(-c2ccco2)n1-c1ccccc1)c1ccccc1    6.44% (inactive)
COc1ccc(-n2nc3c(c2NC(=O)c2ccc(Br)cc2)CS(=O)C3)cc1 (stereo unspecified)    2.87% (inactive)
CCOc1ccc(-c2cc(CCCC(=O)Nc3cccc(OC)c3)no2)cc1    0.05% (inactive)

Provide measured RAM network inhibition value, entry: `COC(=O)C1=C(C)N(Cc2cccnc2)C(=O)C1`
5.02% (inactive)
